assay-system: HLA-B*15:01
procedure-details: IEDB peptide-MHC binding, purified MHC/competitive/radioactivity; filed as Kd, often an IC50 or EC50 that approximates it; bounds were set here for any values at or beyond the usual limits of such assays
assay-context: source organism: Vaccinia virus WR
parameter: Kd

[[record]]
sequence_text = "LLFVCISYY"
reported_value = "≥ 78100 nM"

[[record]]
sequence_text = "FIAKHFLEL"
reported_value = "6500 nM"

[[record]]
sequence_text = "IKYACKQIL"
reported_value = "6870 nM"


Kd lookup needed for `YICILINHG` , thanks. 813 nM

Entry `SVIFYFISI` has what Kd? 335 nM

What Kd value was documented for this sequence, `LIKVLVEHG` ? 621 nM

Returns the measured Kd for the input sequence. Input: `KAAKRISHG` 7690 nM

Given `FLYSFFLCI` , state its recorded Kd. 1170 nM

I have this sequence here, `RIRNKFMFI` , and I need its recorded Kd. 766 nM

Could you share which Kd value was measured for `KAFKKFPSG` ? 2990 nM

What does the data say about its Kd? Entry: `ASITAFKSM` 25 nM

Which measured Kd value corresponds to `ITLTNVVNI` ? 11.6 nM

Give its Kd value. Item: `SLCKLNNVF` 16 nM

Can you look up the measured Kd of `HVKSTLNNA` for me? 366 nM

# get_value(readout='Kd', item= `KNNNEFAFF` ) 1330 nM

Value lookup for Kd; key = `AVAKYFSPL` 16 nM
